Assay: DRUGMATRIX: Sodium/nucleoside co-transporter radioligand binding (ligand: nitrobenzylthioinosine)
Type: cell membranes, Cavia porcellus, Dunkin-Hartley, Cerebral cortex, Membrane
Details: Not Active = under 50% inhibition at 10 µM
metric: IC50

compound	metric	result
CC(=O)O[C@]1(C(C)=O)CC[C@H]2[C@@H]3C=C(Cl)C4=CC(=O)[C@@H]5C[C@@H]5[C@]4(C)[C@H]3CC[C@@]21C [CYPROTERONE ACETATE]	IC50	Not Active
CC[C@H](C)C(=O)O[C@H]1C[C@@H](C)C=C2C=C[C@H](C)[C@H](CC[C@@H]3C[C@@H](O)CC(=O)O3)[C@H]21	IC50	Not Active
OCCO	IC50	Not Active
CCOC(=O)[C@H](CCc1ccccc1)N[C@@H](C)C(=O)N1Cc2ccccc2C[C@H]1C(=O)O	IC50	Not Active
CC(=O)O[C@H]1C[C@@H]2CC[C@@H]3[C@H](CC[C@@]4(C)[C@H]3C[C@H]([N+]3(C)CCCCC3)[C@@H]4OC(C)=O)[C@@]2(C)C[C@@H]1N1CCCCC1.[Br-] [VECURONIUM BROMIDE]	IC50	Not Active
COc1ncnc(NS(=O)(=O)c2ccc(N)cc2)c1OC	IC50	Not Active
NC(=O)N1c2ccccc2C=Cc2ccccc21 [CARBAMAZEPINE]	IC50	Not Active

###

Biological target: Delta-type opioid receptor (Homo sapiens, UniProt P41143); further: in other assays of this panel Not Active means under 50% inhibition at 10 µM
Sequence (P41143 whole entry): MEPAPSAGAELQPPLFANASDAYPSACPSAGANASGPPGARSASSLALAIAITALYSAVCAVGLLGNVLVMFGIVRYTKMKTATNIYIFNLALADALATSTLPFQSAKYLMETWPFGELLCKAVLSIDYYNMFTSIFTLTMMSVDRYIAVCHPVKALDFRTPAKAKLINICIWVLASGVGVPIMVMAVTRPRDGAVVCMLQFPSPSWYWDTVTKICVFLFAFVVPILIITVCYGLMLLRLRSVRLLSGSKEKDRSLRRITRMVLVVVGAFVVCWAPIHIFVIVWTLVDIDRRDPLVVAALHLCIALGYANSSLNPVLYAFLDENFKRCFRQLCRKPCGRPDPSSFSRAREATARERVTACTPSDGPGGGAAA
Format: cell membranes, HEK293, Membrane
Details: hek293
metric: IC50

molecule	result
O=P1(N(CCCl)CCCl)NCCCO1 (configuration not stated) [CYCLOPHOSPHAMIDE ANHYDROUS]	Not Active
CCOC(=O)n1ccn(C)c1=S [CARBIMAZOLE]	Not Active
CN1C(=O)CN=C(c2ccccc2)c2cc(Cl)ccc21 [DIAZEPAM]	Not Active
NC[C@@H]1O[C@H](O[C@H]2[C@@H](O)[C@H](O[C@@H]3[C@@H](O)[C@H](N)C[C@H](N)[C@H]3O[C@H]3O[C@H](CN)[C@@H](O)[C@H](O)[C@H]3N)O[C@@H]2CO)[C@H](N)[C@@H](O)[C@@H]1O [FRAMYCETIN]	Not Active
CCOC(=O)[C@H](CCc1ccccc1)N[C@@H](C)C(=O)N1Cc2ccccc2C[C@H]1C(=O)O	Not Active
C=C1/C(=C\C=C2/CCC[C@]3(C)[C@@H]([C@H](C)CCCC(C)C)CC[C@@H]23)C[C@@H](O)C[C@@H]1O [ALFACALCIDOL]	Not Active
O=C(O)Cc1ccc(-c2ccccc2)cc1 [FELBINAC]	Not Active
CCOC(=O)[C@H](CCc1ccccc1)N[C@@H](C)C(=O)N1CCC[C@H]1C(=O)O	Not Active
CC1=C(CC(=O)O)c2cc(F)ccc2/C1=C\c1ccc(S(C)(=O)=O)cc1 [EXISULIND]	Not Active
CC(=O)Nc1nnc(S(N)(=O)=O)s1 [ACETAZOLAMIDE]	Not Active
CC(C(=O)O)c1ccc(CC2CCCC2=O)cc1 (configuration not stated) [LOXOPROFEN]	Not Active
C[C@H]([C@](O)(Cn1cncn1)c1ccc(F)cc1F)S(C)(=O)=O [GENACONAZOLE]	Not Active
Nc1nc2c(c(=O)[nH]1)N(C=O)C(CNc1ccc(C(=O)N[C@@H](CCC(=O)O)C(=O)O)cc1)CN2 (some centres not stated) [LEUCOVORIN]	Not Active
CO[C@@]1(NC(=O)CSCC#N)C(=O)N2C(C(=O)O)=C(CSc3nnnn3C)CS[C@@H]21 [CEFMETAZOLE]	Not Active
COc1ccccc1OCC(O)COC(N)=O (configuration not stated) [METHOCARBAMOL]	Not Active
[N-]=[N+]=CC(=O)OC[C@H](N)C(=O)O [AZASERINE]	Not Active
CCn1cc(C(=O)O)c(=O)c2cc(F)c(N3CCNCC3)nc21 [ENOXACIN]	Not Active

###

Listed below: pIC50 values for each entry.
Target: UniProt P24557
Sequence (P24557 whole entry): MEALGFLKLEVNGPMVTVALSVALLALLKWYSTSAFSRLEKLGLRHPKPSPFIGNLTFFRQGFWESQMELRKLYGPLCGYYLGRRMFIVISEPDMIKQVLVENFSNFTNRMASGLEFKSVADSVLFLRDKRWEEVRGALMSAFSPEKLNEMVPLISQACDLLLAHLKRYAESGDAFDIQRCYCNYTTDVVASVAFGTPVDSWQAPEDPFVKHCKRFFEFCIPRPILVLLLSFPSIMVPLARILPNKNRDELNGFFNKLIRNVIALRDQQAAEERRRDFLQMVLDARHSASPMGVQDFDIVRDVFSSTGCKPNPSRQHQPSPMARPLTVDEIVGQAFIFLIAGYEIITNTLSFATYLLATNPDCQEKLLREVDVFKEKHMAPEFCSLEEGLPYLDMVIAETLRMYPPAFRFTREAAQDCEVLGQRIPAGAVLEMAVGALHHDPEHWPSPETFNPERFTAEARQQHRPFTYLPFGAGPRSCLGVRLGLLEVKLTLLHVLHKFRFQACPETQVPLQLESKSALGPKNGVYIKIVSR
Assay: biochemical
Type: tissue-based, Platelet
Settings: read-out: IC50
pIC50: −log10 of the molar value.

compound	pIC50
CN(CCOc1ccc(CC2SC(=O)NC2=O)cc1)c1ccccn1 (configuration not stated)	5.45
COc1cc(C(=O)NS(=O)(=O)c2ccccc2C)ccc1Cc1cn(C)c2ccc(NC(=O)OC3CCCC3)cc12	5.42

###

Molecular target: Cytochrome P450 2C9 (Homo sapiens); further: in other assays of this panel Not Active means under 50% inhibition at 10 µM
Sequence (P11712 whole entry): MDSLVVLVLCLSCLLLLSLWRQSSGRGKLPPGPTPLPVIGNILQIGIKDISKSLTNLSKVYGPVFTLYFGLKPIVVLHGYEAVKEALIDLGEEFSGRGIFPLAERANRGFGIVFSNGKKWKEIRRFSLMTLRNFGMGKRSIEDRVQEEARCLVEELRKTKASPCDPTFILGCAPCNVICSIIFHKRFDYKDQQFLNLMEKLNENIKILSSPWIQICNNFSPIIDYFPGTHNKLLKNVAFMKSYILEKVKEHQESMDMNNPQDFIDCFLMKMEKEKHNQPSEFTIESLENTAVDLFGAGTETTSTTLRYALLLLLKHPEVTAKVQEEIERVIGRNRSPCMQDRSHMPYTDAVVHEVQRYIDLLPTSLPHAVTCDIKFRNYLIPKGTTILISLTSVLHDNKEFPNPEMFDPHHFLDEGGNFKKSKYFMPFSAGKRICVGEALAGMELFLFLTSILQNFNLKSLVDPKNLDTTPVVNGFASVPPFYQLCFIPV
Conditions: bti-tn-5b1-4
metric: IC50

substance	result
COBALT(II) ACETYLACETONATE	Not Active
POLYVINYL ALCOHOL	Not Active
STANNOUS FLUORIDE	Not Active
INSULIN HUMAN	Not Active
THIMEROSAL	Not Active

###

Assay: DRUGMATRIX: Phosphodiesterase PDE3 enzyme inhibition (substrate: [3H]cAMP + cAMP)
Format: tissue-based, Homo sapiens
Settings: platelet; Not Active = under 50% inhibition at 10 µM

compound	Ki
COC(=O)c1ccccc1O [METHYL SALICYLATE]	Not Active
CC(C(=O)O)c1ccc(-c2ccccc2)c(F)c1 (stereo not drawn)	Not Active
Cc1c(N(C)CS(=O)(=O)[O-])c(=O)n(-c2ccccc2)n1C.[Na+] [DIPYRONE SODIUM]	Not Active
CC(C)C[C@H]1C(=O)N2CCC[C@H]2[C@]2(O)O[C@](NC(=O)[C@@H]3C=C4c5cccc6[nH]c(Br)c(c56)C[C@H]4N(C)C3)(C(C)C)C(=O)N12	Not Active
O=C(O)C(Cl)(Cl)Cl	Not Active
O=c1cc(-c2ccccc2)oc2ccc3ccccc3c12	Not Active
CC(C)(CO)C(O)C(=O)NCCCO (stereo not drawn)	Not Active
C[C@@H]1CC[C@H]2[C@@H](C)C(=O)O[C@@H]3O[C@@]4(C)CC[C@@H]1[C@]32OO4	Not Active

###

Biological target: Beta-2 adrenergic receptor (Homo sapiens, UniProt P07550)
Sequence (P07550 whole entry): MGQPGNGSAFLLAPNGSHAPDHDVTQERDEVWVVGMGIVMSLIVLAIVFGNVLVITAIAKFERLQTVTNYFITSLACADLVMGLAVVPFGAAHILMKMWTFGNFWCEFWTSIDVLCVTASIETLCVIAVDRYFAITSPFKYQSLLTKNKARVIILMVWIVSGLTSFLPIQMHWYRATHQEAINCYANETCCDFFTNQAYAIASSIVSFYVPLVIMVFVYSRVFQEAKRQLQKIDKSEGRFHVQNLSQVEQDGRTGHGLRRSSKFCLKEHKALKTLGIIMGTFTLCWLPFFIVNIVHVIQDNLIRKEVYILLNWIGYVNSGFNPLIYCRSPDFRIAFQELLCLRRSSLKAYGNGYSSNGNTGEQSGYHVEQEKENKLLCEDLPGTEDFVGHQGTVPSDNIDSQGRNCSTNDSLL
Assay: DRUGMATRIX: Adrenergic beta2 radioligand binding (ligand: [3H] CGP-12177)
Type: cell membranes, CHO, Membrane
Settings: cho; Not Active = under 50% inhibition at 10 µM

smi	test.target	IC50
CC[C@H]1OC(=O)[C@H](C)[C@@H](O[C@H]2C[C@@](C)(OC)[C@@H](O)[C@H](C)O2)[C@H](C)[C@@H](O[C@@H]2O[C@H](C)C[C@H](N(C)C)[C@H]2O)[C@](C)(OC)C[C@@H](C)C(=O)[C@H](C)[C@@H](O)[C@]1(C)O	Beta-2 adrenergic receptor (Homo sapiens, UniProt P07550)	Not Active
C[C@H](C(=O)O)c1cccc(C(=O)c2ccccc2)c1	Beta-2 adrenergic receptor (Homo sapiens, UniProt P07550)	Not Active
CCOC(=O)[C@H](CCc1ccccc1)N[C@@H](C)C(=O)N1Cc2ccccc2C[C@H]1C(=O)O	Beta-2 adrenergic receptor (Homo sapiens, UniProt P07550)	Not Active

###

Assay: DRUGMATRIX: Nicotinic Acetylcholine radioligand binding (ligand: [125I] Epibatidine)
Assay type: cell membranes, Membrane
Settings: imr-32; Not Active = under 50% inhibition at 10 µM
metric: Ki

compound	metric	result
COc1ccc(/C=C/C(=O)Nc2ccccc2C(=O)O)cc1OC	Ki	Not Active
CC(=O)O[C@]1(C(C)=O)CC[C@H]2[C@@H]3C=C(Cl)C4=CC(=O)[C@@H]5C[C@@H]5[C@]4(C)[C@H]3CC[C@@]21C [CYPROTERONE ACETATE]	Ki	Not Active
CCn1cc(C(=O)O)c(=O)c2cc(F)c(N3CCNCC3)nc21	Ki	Not Active
Nc1ccc(S(=O)(=O)Nc2ncccn2)cc1	Ki	Not Active
CS(=O)(=O)OCCCCOS(C)(=O)=O	Ki	Not Active
O=C(c1ccccc1Cl)N1CCC(Cc2ccccc2)CC1	Ki	Not Active
OCCN1CCN(CCCN2c3ccccc3Sc3ccc(Cl)cc32)CC1	Ki	Not Active
CN1C[C@H](C(=O)N[C@]2(C)O[C@@]3(O)[C@@H]4CCCN4C(=O)[C@H](Cc4ccccc4)N3C2=O)C[C@@H]2c3cccc4[nH]cc(c34)C[C@H]21 [DIHYDROERGOTAMINE]	Ki	Not Active
O=c1cc(-c2ccccc2)oc2ccc3ccccc3c12	Ki	Not Active

###

Molecular target: Carbonic anhydrase 2 (Homo sapiens, UniProt P00918)
Test: DRUGMATRIX: Carbonic Anhydrase II enzyme inhibition (substrate: 4-Nitrophenyl acetate (4-NPA))
Type: tissue-based, Erythrocyte
Conditions: Not Active = under 50% inhibition at 10 µM; read-out: IC50
metric: IC50

compound	result
CN(CCOc1ccc(CC2SC(=O)NC2=O)cc1)c1ccccn1 (stereo unspecified) [ROSIGLITAZONE]	4.07 µM

###

Target: B2 bradykinin receptor (Homo sapiens, UniProt P30411); further: in other assays of this panel Not Active means under 50% inhibition at 10 µM
Sequence (P30411 whole entry): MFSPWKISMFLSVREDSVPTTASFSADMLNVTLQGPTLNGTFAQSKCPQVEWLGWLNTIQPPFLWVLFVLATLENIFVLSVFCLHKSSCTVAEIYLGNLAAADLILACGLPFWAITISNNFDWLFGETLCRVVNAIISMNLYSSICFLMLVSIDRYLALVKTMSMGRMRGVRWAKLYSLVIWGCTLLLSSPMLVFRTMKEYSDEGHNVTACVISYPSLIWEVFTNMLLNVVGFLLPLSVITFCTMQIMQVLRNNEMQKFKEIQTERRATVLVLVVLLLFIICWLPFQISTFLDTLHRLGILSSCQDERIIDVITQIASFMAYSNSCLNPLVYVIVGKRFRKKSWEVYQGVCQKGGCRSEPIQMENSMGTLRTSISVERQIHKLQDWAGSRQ
Assay type: cell membranes, Membrane
Settings: chem-1

compound	test.target	IC50
Nn1nnc2ccccc21	B2 bradykinin receptor (Homo sapiens, UniProt P30411)	Not Active
CC(C)(Oc1ccc(C2CC2(Cl)Cl)cc1)C(=O)O (stereo not drawn) [CIPROFIBRATE]	B2 bradykinin receptor (Homo sapiens, UniProt P30411)	Not Active
NC[C@H]1O[C@H](O[C@H]2[C@H](O)[C@@H](O[C@H]3O[C@H](CO)[C@@H](O)[C@H](N)[C@H]3O)[C@H](N)C[C@@H]2N)[C@H](O)[C@@H](O)[C@@H]1O	B2 bradykinin receptor (Homo sapiens, UniProt P30411)	Not Active

Measured values drawn from ChEMBL document CHEMBL1909046 for this set.
